meta.source: PubChem BioAssay

method.summary: inhibitors of mitochondrial cytochrome c release, biochemical, purified mitochondria (AID 1603);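 further: mouse liver mitochondria challenged with calcium chloride; signal normalized to the plate average as 100%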
recorded.conditions: stronger effect = lower value
We begin with a simple list: items and their reported cytochrome c release ratio.
Note: the reply should be a number with no unit written.

NCCSSCCN | 1.22
CC(C)=CCC1=C(O)c2ccccc2C(=O)C1=O | 0.7
CSCCC(NC=O)C(=O)NC(C)C(=O)O (configuration not stated) | 1.14
NC1(C(=O)O)CCCC1 | 4.67
CC(=O)N=c1sc(S(N)(=O)=O)nn1C | 0.55

Name the recorded cytochrome c release ratio for O=c1cc(-c2ccccc2)oc2cc(O)cc(O)c12 .
0.64

Name the recorded cytochrome c release ratio for O=C1c2ccc(O)c(O)c2C(=O)c2c(O)ccc(O)c21 .
0.18
